test: Resistance to Poly (ADP-Ribose) Polymerase inhibitor: Gene Identification via Genome-wide siRNA Screen; conditions: mouse BRCA2 R2336H ES cells, olaparib, CellTiter-Glo viability
In all, about 52,000 sequences went through this assay and about 210 (0.4%) were called active.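 Rule for the calls: active = gene whose silencing raises cell survival under the drug, median off-target-corrected z-score across its silencing RNAs 2 or more; inactive = the rest.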 The entries come from a sample that favours actives as a whole.
Tick one outcome: active, inactive

Q: Name the outcome recorded for CCUAGAUUGAAAAUUGUCATT against 1700049G17Rik in the assay.
A: inactive

Q: Name the outcome recorded for GGCUCCACCAAAGCCUGUUTT against 2310066N05Rik in the assay.
A: inactive

Q: Name the outcome recorded for GGCAGAGAAAAGGACCUUUTT against 2400002F11Rik in the assay.
A: inactive

Q: Name the outcome recorded for GCUGGUGUCAUUAGACAGUTT against Npc1l1 in the assay.
A: inactive

Q: Name the outcome recorded for GGUCAUGGAAGAAGCAAAGTT against 5730555F13Rik in the assay.
A: inactive

Q: Name the outcome recorded for GGCUAGCUAACUAUCUCUGTT against 9230105I15Rik in the assay.
A: inactive

Q: Name the outcome recorded for GGAGGAAGAAACAGAACCATT against A930021G21Rik in the assay.
A: inactive

Q: Name the outcome recorded for GGUGUGGGUGGGAAAAGAATT against 2610027C15Rik in the assay.
A: inactive

Q: Name the outcome recorded for GGGAUUUAACAACAUGUAATT against Slc20a1 in the assay.
A: active

Q: Name the outcome recorded for CUCUCGAACAAUCAACCACTT against Olfr315 in the assay.
A: inactive

Q: Name the outcome recorded for GACAAGACAAGUUUUGGUATT against Elmo1 in the assay.
A: inactive

* * *

assay: Resistance to Poly (ADP-Ribose) Polymerase inhibitor: Gene Identification via Genome-wide siRNA Screen; conditions: mouse BRCA2 R2336H ES cells, olaparib, CellTiter-Glo viability; stronger effect = higher value
Among all 52,000 sequences or so, about 210 (0.4%) were called active. This is one part of a sample in which actives are shown more often than they occur.
Categorized via z-score: bottom range (below 0.01), center range (0.01 to below 1), top range (1 or more)

Below, 6 sequences whose answers are already recorded.
INSERT INTO assay_data (ordered_residues, label_class) VALUES
  ('GGUGAAACUGAAUAAAAUCTT against 4931406C07Rik', 'top range'),
  ('GGAGUACAGUGAUGACAAGTT against Ing5', 'center range'),
  ('GCUAGUUGGAGCUAGAUUATT against E130320D18', 'center range'),
  ('CCUUAUCCAAGAGUAGGGCTT against AY534250', 'top range'),
  ('GCAUCUCACUCGUAAAGGUTT against 4732406D01Rik', 'bottom range'),
  ('CCAACUUCAAAACUAUCGUTT against Trp53bp1', 'top range');

Q: Using the reported z-score, which band applies to GUUUUCUUGAGACAGUUAATT against 1810008A14Rik ?
A: bottom range

Q: Using the reported z-score, which band applies to GGAAGAAUUGAACCACAGGTT against Papolg ?
A: center range

Q: Using the reported z-score, which band applies to GGAAUACUUAUAGCUGACUTT against Rdhe2 ?
A: center range

Q: Using the reported z-score, which band applies to CUGUAAGGCGGAUAAGACCTT against 2610017I09Rik ?
A: bottom range

Q: Using the reported z-score, which band applies to GGAACCAAUAAAUCUGUGCTT against Rfxank ?
A: center range

* * *

assay: Resistance to Poly (ADP-Ribose) Polymerase inhibitor: Gene Identification via Genome-wide siRNA Screen; details: mouse BRCA2 R2336H ES cells, olaparib, CellTiter-Glo viability; stronger effect = higher value
Out of some 52,000 sequences screened, about 210 (0.4%) were called active. Only a selection was taken, and actives are over-represented in it overall.
Endpoint: z-score

// solved cases for z-score follow
INSERT INTO assay_data (ordered_residues, endpoint, observed) VALUES
  ('GGAUUAAUUAAUACUUGGCTT against 3010033P07Rik', 'z-score', '0.03 (inactive)'),
  ('GCCAUUCCGGCAGUAUUACTT against Pdcd7', 'z-score', '0.524 (inactive)'),
  ('GCGCAUAUUUUAUCAACUCTT against Plcb3', 'z-score', '1.31 (active)'),
  ('GGAACAUGAAGCCUUUUACTT against Asb16', 'z-score', '3.12 (active)'),
  ('GGAGUGUUUGAGAAAUACCTT against BC027342', 'z-score', '-0.283 (inactive)');

The recorded z-score for GGUUUUGGCUCGAAGGAAATT against Tead2 is -1 (inactive)

The recorded z-score for CCACUUUUAAAGGAAUGUGTT against Ncoa1 is -0.0128 (inactive)

The recorded z-score for GGAAUGUAUCCAGGACUUCTT against Brd4 is -1.95 (inactive)

The recorded z-score for GGAAGGAAGAAAAAAUAGUTT against Acat1 is -0.146 (inactive)

The recorded z-score for GGUUAUCACUCCUCAACAATT against Foxp1 is -0.826 (inactive)

The recorded z-score for GGGUAGCUGGCGAAUCAAATT against Ptpro is 1.43 (inactive)

The recorded z-score for GCGGCAUAAGUCCAAGCACTT against Crk7 is -1.76 (inactive)

* * *

assay: Resistance to Poly (ADP-Ribose) Polymerase inhibitor: Gene Identification via Genome-wide siRNA Screen; details: mouse BRCA2 R2336H ES cells, olaparib, CellTiter-Glo viability; stronger effect = higher value
In all, about 52,000 sequences went through this assay and about 210 (0.4%) were called active. This excerpt belongs to a sample that is enriched for actives.
Endpoint: z-score
Response field accepts a number only; no unit should be typed.

INSERT INTO results (ordered_residues, observed) VALUES
  ('CGCUGAAAUAAAGACCAGATT against 2400010G15Rik', 1.99),
  ('GGAGCCAUGACUUUUCACUTT against Sec22l1', 0.164),
  ('GCUUAAAACAGACCAUUUUTT against 1700013G20Rik', 0.824),
  ('GCAACAGGUUAGCGAAACCTT against Bid3', 0.43),
  ('GGAGGAGUUGCACCUCAUCTT against Pctk3', 0.655);

The recorded z-score for GCCUUAAGUGGAUUUAGGATT against Hist1h2ae is 1.22

The recorded z-score for GGCAAAUGGUCUUUAUGCATT against Zfp606 is -0.699

The recorded z-score for CCAUAGCACUAAAUCAGAUTT against 4933421G18Rik is 0.387

* * *

experiment: Resistance to Poly (ADP-Ribose) Polymerase inhibitor: Gene Identification via Genome-wide siRNA Screen; conditions: mouse BRCA2 R2336H ES cells, olaparib, CellTiter-Glo viability; stronger effect = higher value
Screen size: about 52,000 sequences; about 210 (0.4%) were called active. The entries come from a sample that favours actives as a whole.
# maps each entry to its z-score
Response field accepts a number only; no unit should be typed.

// solved cases for z-score follow
INSERT INTO measurements (ordered_residues, observed) VALUES
  ('GACGGUGGGACUCACUGUUTT against Ors6', -0.403),
  ('CCAAGUUUUUAUGCAGAUATT against Pip5k1a', -1.31),
  ('CCCGGAACUUAACUCUGUATT against LOC381438', -0.264),
  ('CCAUUACACAAAGUUUUGCTT against Stard6', 0.874),
  ('CGAUAAACUGGAUACCACUTT against A430083B19Rik', -0.3);

The recorded z-score for GCAAGUUAUCCAGCACUCATT against Ylpm1 is -1.57

The recorded z-score for GGAAAUGUGACCACAAAGATT against Tas2r120 is -0.347

The recorded z-score for GGACAUAAAAAUACGCCAGTT against Hsf1 is 3.22

The recorded z-score for GGUGGGAAUGGGAAUCAGUTT against Akr1e1 is 1.57

The recorded z-score for GGGUACAAUAUCCUUAAGUTT against D430033A06Rik is -0.51

The recorded z-score for GGAAAGAAAAAAGAUGGUCTT against Riok1 is -1.05

The recorded z-score for GGACAUCCAUUCAAGGCCUTT against Rtn3 is 1.05

The recorded z-score for GGCCGACAAGCGAUCAAAATT against AU040829 is -0.237

The recorded z-score for GCACCCGGCACUAGAAAAATT against Shoc2 is 0.638

The recorded z-score for GCAUGAUUUAGAUCGAGUATT against Uqcrfs1 is -1.17

* * *

assay: Resistance to Poly (ADP-Ribose) Polymerase inhibitor: Gene Identification via Genome-wide siRNA Screen; conditions: mouse BRCA2 R2336H ES cells, olaparib, CellTiter-Glo viability; stronger effect = higher value
Hit rate of the full screen: of about 52,000 sequences, about 210 (0.4%) were called active. This is one part of a sample in which actives are shown more often than they occur.
Categorized via z-score: low range = under -0.6, mid range = from -0.6 up to 0.1, high range = 0.1 and over

Below, 6 sequences whose answers are already recorded.
INSERT INTO results (ordered_residues, label_class) VALUES
  ('GGCCUUGAGGCUAUUCAUGTT against Stk16', 'mid range'),
  ('CCAAUUCUCGAAUCAUUGCTT against Olfr561', 'mid range'),
  ('GCAUACAUAGCACUACAUATT against Olfr536', 'mid range'),
  ('GCCCAUAACAAAACAUCUATT against Mcpt5', 'high range'),
  ('GGAUCUAUAAGGACUACAUTT against Bmp7', 'low range'),
  ('CCUAUUUUUUCUCCACUGATT against Sntg1', 'low range');

Q: Using the reported z-score, which band applies to GGAAUUUUAGCGGAUGAUATT against Smarca3 ?
A: high range

Q: Using the reported z-score, which band applies to CCAGUUACGUUAAAAGCUUTT against D1Bwg0491e ?
A: mid range

Q: Using the reported z-score, which band applies to CCACGUGUUUGCAUUCAAATT against Gdd1 ?
A: high range

Q: Using the reported z-score, which band applies to GGACAAGUUUCAGUGACCCTT against Zdhhc9 ?
A: mid range

Q: Using the reported z-score, which band applies to CGCGGGAUGAAGGAUAUAATT against LOC432589 ?
A: low range

The measurements presented in this section are drawn from PubChem BioAssay AID1347423.
